From: PubChem BioAssay AID2060491

- System: 857933-349-R-J2-PDC complex spheroids, viability;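 also: spheroids exposed to compounds for one week before readout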
- experiment description: Anticancer human tumor 857933-349-R-J2-PDC patient-derived colon adenocarcinoma cell line growth inhibition [GQUAD]
- measurement parameters: second compound 3.16 µM; first compound 3.16 µM; hits give low values
// assign true if viability, T/C falls strictly below 60%, else false (ties count as false)

compound="C=CC(=O)N1CCN(c2nc(=O)n(-c3c(C)ccnc3C(C)C)c3nc(-c4c(O)cccc4F)c(F)cc23)C(C)C1 (stereo not given) + Cc1cnc(CNC(=O)c2c(=O)c3ccc(N4CCCN(C)CC4)nc3n3c2sc2ccccc23)cn1" target_or_test_system="857933-349-R-J2-PDC complex spheroids, viability" discrete_label=true
compound="C#Cc1c(F)ccc2cc(O)cc(-c3ncc4c(N5CC6CCC(C5)N6)nc(OCC56CCCN5CC(F)C6)nc4c3F)c12 (stereo not given) + Cc1cnc(CNC(=O)c2c(=O)c3ccc(N4CCCN(C)CC4)nc3n3c2sc2ccccc23)cn1" target_or_test_system="857933-349-R-J2-PDC complex spheroids, viability" discrete_label=true
compound="CC(=O)O[C@H]1C(=O)[C@@]2(C)[C@H]([C@H](OC(=O)c3ccccc3)[C@]3(O)C[C@H](OC(=O)[C@H](O)[C@@H](NC(=O)c4ccccc4)c4ccccc4)C(C)=C1C3(C)C)[C@]1(OC(C)=O)CO[C@@H]1C[C@@H]2O + Cc1cnc(CNC(=O)c2c(=O)c3ccc(N4CCCN(C)CC4)nc3n3c2sc2ccccc23)cn1" target_or_test_system="857933-349-R-J2-PDC complex spheroids, viability" discrete_label=true
compound="CCCS(=O)(=O)Nc1ccc(F)c(C(=O)c2c[nH]c3ncc(-c4ccc(Cl)cc4)cc23)c1F + Cc1[nH]c2ccc(F)cc2c1-c1nc2c3cccnc3c3ncccc3c2[nH]1" target_or_test_system="857933-349-R-J2-PDC complex spheroids, viability" discrete_label=false
